Ref: PubChem BioAssay AID1159580

# normalized growth per record follows
Procedure Details: chemical genetic growth profiling, strain panel (AID 1159580);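 also: tested at 20 µM; growth read once vehicle control cultures reached saturation at 30 °C; 1 = growth at the plate median or of vehicle wells; lower values mean less growth of the strain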
Experimental Context: S. cerevisiae deletion strains, growth OD, locus YDR162C, strain NBP2, hits give low values
About 2,000 (36%) of roughly 5,500 compounds were called active. Not shown: some 18% with an inconclusive outcome. The list shows a part of the results.
Readout: normalized growth

INSERT INTO measurements (compound, result) VALUES
  ('COc1cc([C@@H]2c3cc4c(cc3C(O[C@@H]3O[C@@H]5CO[C@@H](c6cccs6)OC5[C@H](O)[C@H]3O)C3COC(=O)[C@@H]32)OCO4)cc(OC)c1O (stereo partly specified)', '1.01 (inactive)'),
  ('NCCc1ccc(O)c(O)c1', '1 (inactive)'),
  ('NCCc1cccc(O)c1', '0.996 (inactive)'),
  ('COc1ccc(-c2cc(=O)c3ccccc3o2)cc1', '0.274 (active)'),
  ('Cc1cc(=O)c2c(O)c3c(cc2o1)OCC(C)CC3 (stereo unspecified)', '0.885 (inactive)'),
  ('NCCc1ccc(O)cc1', '1.01 (inactive)'),
  ('CC(=O)N(O)CCCCCNC(=O)CCC(=O)N(O)CCCCCNC(=O)CCC(=O)N(O)CCCCCN', '0.997 (inactive)'),
  ('O=C1CC[C@]23C=CC(=O)NCCCCNCCCNC(=O)/C=C/c4ccc(c2c4)O[C@@H]3C1', '1.02 (inactive)'),
  ('Cc1cc(=O)c2c(o1)-c1c(cc(O)c(O)c1C(=O)O)OC2', '0.987 (inactive)'),
  ('C#CCOS(=O)OC1CCCCC1Oc1ccc(C(C)(C)C)cc1 (stereo unspecified)', '1.02 (inactive)'),
  ('Cc1cc(=O)c2c(O)c3c(cc2o1)OC(C)(C)CC3', '1.01 (inactive)');

====

Procedure Details: chemical genetic growth profiling, strain panel (AID 1159580);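 also: tested at 20 µM; growth read once vehicle control cultures reached saturation at 30 °C; 1 = growth at the plate median or of vehicle wells; lower values mean less growth of the strain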
Experimental Context: S. cerevisiae deletion strains, growth OD, locus YLR384C, strain iki3, hits give low values
Hit rate of the full screen: of about 5,500 compounds, about 2,000 (36%) were called active. Inconclusive results (about 18%) are left out. Some of the results follow.
# reported normalized growth; entries follow
Readout: normalized growth

INSERT INTO measurements (molecule, readout, numeric_readout) VALUES
  ('CC(C)(O)[C@@H]1CC[C@](C)([C@H]2[C@@H](O)C[C@@]3(C)C4C[C@H](O[C@@H]5O[C@H](CO)[C@@H](O)[C@H](O)[C@H]5O)C5C(C)(C)[C@@H](O[C@@H]6OC[C@@H](O)[C@H](O)[C@H]6O)CC[C@@]56C[C@@]46CC[C@]23C)O1 (some centres not stated)', 'normalized growth', 1),
  ('C[C@@H]1CC[C@@]2(OC1)OC1C(O)C3C4CC[C@H]5C[C@H](O[C@@H]6O[C@H](CO)[C@H](O[C@@H]7O[C@H](CO)[C@@H](O)[C@H](O[C@@H]8OC[C@@H](O)[C@H](O)[C@H]8O)[C@H]7O[C@@H]7O[C@H](CO)[C@H](O)[C@H](O[C@@H]8O[C@H](CO)[C@@H](O)[C@H](O)[C@H]8O)[C@H]7O)[C@H](O)[C@H]6O)[C@H](O)C[C@]5(C)C4CC[C@]3(C)C1[C@@H]2C (some centres not stated)', 'normalized growth', 1.04);

====

Procedure Details: chemical genetic growth profiling, strain panel (AID 1159580);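 also: tested at 20 µM; growth read once vehicle control cultures reached saturation at 30 °C; 1 = growth at the plate median or of vehicle wells; lower values mean less growth of the strain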
Experimental Context: S. cerevisiae deletion strains, growth OD, locus YKL085W, strain MDH1 (second series)
The whole screen tested about 5,500 compounds, of which about 2,000 (36%) were called active. About 18% were inconclusive and are not listed. Cut-off read from the data, not from the text of the source: active = normalized growth mostly below about 0.91 (no sharp cut-off); inconclusive = no clear call, values can overlap the other calls; inactive = mostly above about 0.92. The list shows a part of the results.
Outcomes: T (active), F (inactive)

INSERT INTO measurements (compound, classification) VALUES
  ('CC(=O)Oc1cc(-c2coc3cc(OC(C)=O)c(OC(C)=O)c(OC(C)=O)c3c2=O)cc(OC(C)=O)c1OC(C)=O', 'F'),
  ('CCC1C2CC3C4N(C)c5ccccc5C45CC(C2C5OC(C)=O)N3C1OC(C)=O (stereo not given)', 'F'),
  ('COc1ccc(-c2cc(=O)c3c(OC(C)=O)cc(OC(C)=O)cc3o2)cc1', 'F'),
  ('O=c1c(-c2cc(O)c(O)c(O)c2)coc2cc(O)c(O)c(O)c12', 'F'),
  ('COc1ccc(-c2coc3cc(O)cc(O)c3c2=O)cc1', 'T');

====

Procedure Details: chemical genetic growth profiling, strain panel (AID 1159580);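 also: tested at 20 µM; growth read once vehicle control cultures reached saturation at 30 °C; 1 = growth at the plate median or of vehicle wells; lower values mean less growth of the strain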
Experimental Context: S. cerevisiae deletion strains, growth OD, locus YJL095W, strain BCK1 (second series)
About 2,000 (36%) of roughly 5,500 compounds were called active. Inconclusive results (about 18%) are left out. Rule as the data show it: active = normalized growth mostly below about 0.91 (no sharp cut-off); inconclusive = no clear call, values can overlap the other calls; inactive = mostly above about 0.92. Some of the results follow.
Labels: active, inactive

INSERT INTO results (compound, classification) VALUES
  ('O=C(O)c1cn(-c2ccc(F)cc2)c2cc(N3CCNCC3)c(F)cc2c1=O', 'inactive'),
  ('CC(=O)OCC(=O)[C@@]1(O)CCC2C3CC[C@@H]4C[C@H](O)CC[C@]4(C)C3C(=O)C[C@@]21C (stereo partly specified)', 'inactive'),
  ('CCCCCCc1ccc(O)cc1O', 'active'),
  ('CC(=O)O.CC(=O)O.[Cd]', 'active'),
  ('CC(=O)Nc1ccc(OC(=O)c2ccccc2O)cc1', 'inactive'),
  ('Nc1nnc(-c2cccc(Cl)c2Cl)c(N)n1', 'inactive'),
  ('CC1=C2C(=CO[C@H](C)[C@H]2C)C(=O)C(C(=O)O)=C1O', 'inactive'),
  ('S=c1ccss1', 'inactive'),
  ('O=c1oc2ccccc2c(O)c1Cc1c(O)c2ccccc2oc1=O', 'inactive'),
  ('CC[N+]1(C)CCCC(OC(=O)C(O)(c2ccccc2)c2ccccc2)C1 (stereo unspecified)', 'inactive'),
  ('CN1CCN2c3ccccc3Cc3ccccc3C2C1 (stereo unspecified)', 'inactive'),
  ('CC(=O)OCC(=O)[C@H]1CCC2C3CC=C4C[C@@H](O)CC[C@]4(C)C3CC[C@@]21C (stereo partly specified)', 'inactive'),
  ('O=C(O)c1nc2cc(Cl)c(Cl)cc2[nH]c1=O', 'inactive'),
  ('CCCCC1C(=O)N(c2ccccc2)N(c2ccccc2)C1=O', 'inactive'),
  ('CC1(C)O[C@@H]2CC3C4CCC5=CC(=O)C=C[C@]5(C)[C@@]4(F)[C@@H](O)C[C@]3(C)[C@]2(C(=O)CO)O1 (stereo partly specified)', 'inactive'),
  ('CC(=O)O[C@H]1C[C@@H](O)C(C)(C)C2C[C@@H](OC(C)=O)[C@]3(C)C(CC[C@@]4(C)[C@H](c5ccoc5)OC(=O)C5OC543)[C@]21C (stereo partly specified)', 'inactive'),
  ('CC(=O)O[C@@H]1CC2C(C)(C)[C@H](O)C[C@H](O)[C@]2(C)C2CC[C@@]3(C)[C@H](c4ccoc4)OC(=O)[C@H]4O[C@]43[C@@]21C (stereo partly specified)', 'inactive'),
  ('O=C1c2c(O)ccc(O)c2C(=O)c2c(NCCNCCO)ccc(NCCNCCO)c21', 'active'),
  ('CCCCOc1cc(CC2CNC(=O)N2)ccc1OC (stereo unspecified)', 'inactive'),
  ('CCCCCCCCCc1ccc(O)cc1', 'active'),
  ('CCC(CCC(C)[C@H]1CCC2C3CC=C4C[C@@H](O)CC[C@]4(C)C3CC[C@@]21C)C(C)C (stereo partly specified)', 'inactive'),
  ('CC(=O)Oc1cc(-c2coc3cc(OC(C)=O)c(OC(C)=O)c(OC(C)=O)c3c2=O)cc(OC(C)=O)c1OC(C)=O', 'inactive'),
  ('COc1ccc(-c2cc(=O)c3c(OC(C)=O)cc(OC(C)=O)cc3o2)cc1', 'inactive'),
  ('CC(=O)O[C@H]1C[C@@]2(C)[C@H](c3ccoc3)OC(=O)[C@H]3O[C@]32[C@@]2(C)C1[C@]1(C)C(C[C@H]2OC(C)=O)C(C)(C)[C@H](OC(C)=O)C[C@@H]1OC(C)=O (stereo partly specified)', 'inactive'),
  ('CC(C)c1ccc2c(c1O)CC[C@H]1C3=C(CC[C@]21C)C(=O)OC3', 'inactive'),
  ('CC(=O)CC(c1ccccc1)c1c(O)c2ccccc2oc1=O (stereo unspecified)', 'inactive'),
  ('CC(=O)[C@H]1CCC2C3CC=C4C[C@@H](OC(=O)CCC(=O)O)CC[C@]4(C)C3CC[C@@]21C (stereo partly specified)', 'inactive'),
  ('CN(C)CCC=C1c2ccccc2C=Cc2ccccc21', 'inactive'),
  ('CC1(C)O[C@@H]2CC3C4C[C@H](F)C5=CC(=O)C=CC5(C)C4C(O)CC3(C)[C@]2(C(=O)CO)O1 (stereo partly specified)', 'inactive'),
  ('CC(=O)O[C@@H]1CC2C(C)(C)CCC(=O)[C@]2(C)C2CC[C@@]3(C)[C@H](c4ccoc4)OC(=O)C4OC43[C@@]21C (stereo partly specified)', 'inactive'),
  ('CC(C(=O)O)[C@H]1CCC2C3CC=C4C[C@@H](O)CC[C@]4(C)C3CC[C@@]21C (stereo partly specified)', 'inactive'),
  ('COc1ccc(-c2coc3cc(OC(C)=O)cc(OC(C)=O)c3c2=O)cc1', 'inactive'),
  ('CN(C)C(=O)Oc1cc(OC(=O)N(C)C)cc(C(O)CNC(C)(C)C)c1 (stereo unspecified)', 'inactive'),
  ('CC(=O)Oc1ccc(-c2cc(=O)c3c(OC(C)=O)cc(OC(C)=O)cc3o2)cc1', 'inactive'),
  ('O=c1[nH]c2cc(Cl)c(Cl)cc2[nH]c1=O', 'inactive'),
  ('CC(=O)N(O)CCCCCNC(=O)CCC(=O)N(O)CCCCCNC(=O)CCC(=O)N(O)CCCCCN', 'inactive'),
  ('CCC(/C=C/[C@@H](C)[C@H]1CCC2C3CC=C4C[C@@H](O)CC[C@]4(C)C3CC[C@@]21C)C(C)C (stereo partly specified)', 'inactive'),
  ('NCCc1ccc(O)cc1', 'inactive'),
  ('NCCc1ccc(O)c(O)c1', 'inactive'),
  ('Nc1ccc(C(=O)O)c(O)c1', 'inactive'),
  ('CNCCC=C1c2ccccc2CCc2ccccc21', 'inactive');
